# Assay Name: Pharmacokinetic study of four steroidal saponins in rat plasma after oral administration of A. asphodeloides fractions (UPLC-MS/MS)
# Format: in vivo, Sprague-Dawley rats
# Setup Conditions: male, Sprague-Dawley, rat, plasma, po, 400 mg/kg, rat plasma, single oral dose, Group ASE (ASE 400 mg/kg), n = 6, mean ± S.D.; read-out: Tmax
# Method: The dried A. asphodeloides were chopped into slices before using. The A. asphodeloides was immersed in water (1:10, w/v) and extracted twice by refluxing for 2 h. […] The contents of four steroidal saponins in ASE dry powder were measured quantitatively by the external standard method using the same chromatography conditions as described above. […]
Let's look at some molecules and their measured Tmax.
Attribute Measured: Tmax (h)

>  <Smiles Repr>
C[C@H]1CC[C@@]2(OC1)O[C@H]1C[C@H]3[C@@H]4CC[C@@H]5C[C@@H](O[C@@H]6O[C@H](CO)[C@H](O)[C@H](O)[C@H]6O[C@@H]6O[C@H](CO)[C@@H](O)[C@H](O)[C@H]6O)CC[C@]5(C)[C@H]4CC[C@]3(C)[C@H]1[C@@H]2C

>  <Units Of Measure>
h

>  <Result>
5.66

$$$$
>  <Smiles Repr>
C[C@@H](CC[C@@]1(O)O[C@H]2C[C@H]3[C@@H]4CC[C@@H]5C[C@@H](O[C@@H]6O[C@H](CO)[C@H](O)[C@H](O)[C@H]6O[C@@H]6O[C@H](CO)[C@@H](O)[C@H](O)[C@H]6O)CC[C@]5(C)[C@H]4CC[C@]3(C)[C@H]2[C@@H]1C)CO[C@@H]1O[C@H](CO)[C@@H](O)[C@H](O)[C@H]1O

>  <Units Of Measure>
h

>  <Result>
3.75

$$$$

###

# Assay Name: Pharmacokinetic study of four steroidal saponins in rat plasma after oral administration of A. asphodeloides fractions (UPLC-MS/MS)
# Assay type: in vivo, Sprague-Dawley rats
# Setup Conditions: male, Sprague-Dawley, rat, plasma, po, 400 mg/kg, rat plasma, single oral dose, Group ASE-SF, n = 6, mean ± S.D.; read-out: Tmax
Tmax overview

>  <Smiles Repr>
C[C@@H](CC[C@@]1(O)O[C@H]2C[C@H]3[C@@H]4CC[C@@H]5C[C@@H](O[C@@H]6O[C@H](CO)[C@H](O)[C@H](O)[C@H]6O[C@@H]6O[C@H](CO)[C@@H](O)[C@H](O)[C@H]6O)CC[C@]5(C)[C@H]4CC[C@]3(C)[C@H]2[C@@H]1C)CO[C@@H]1O[C@H](CO)[C@@H](O)[C@H](O)[C@H]1O

>  <Units Of Measure>
h

>  <Tmax>
5

$$$$
>  <Smiles Repr>
C[C@H]1CC[C@@]2(OC1)O[C@H]1C[C@H]3[C@@H]4CC[C@@H]5C[C@@H](O[C@@H]6O[C@H](CO)[C@H](O)[C@H](O)[C@H]6O[C@@H]6O[C@H](CO)[C@@H](O)[C@H](O)[C@H]6O)CC[C@]5(C)[C@H]4CC[C@]3(C)[C@H]1[C@@H]2C

>  <Units Of Measure>
h

>  <Tmax>
5.33

$$$$

###

# Assay Name: Pharmacokinetic study of four steroidal saponins in rat plasma after oral administration of A. asphodeloides fractions (UPLC-MS/MS)
# Type: in vivo, Sprague-Dawley rats
# Setup Conditions: male, Sprague-Dawley, rat, in vivo, po, 400 mg/kg, Cmax

>  <Compound>
CC1=C(CCC(C)COC2OC(CO)C(O)C(O)C2O)OC2CC3C4CCC5CC(OC6OC(CO)C(O)C(O)C6OC6OC(CO)C(O)C(O)C6O)CCC5(C)C4CCC3(C)C12 (centres unmarked)

>  <Cmax>
34.5 ng/mL

$$$$
>  <Compound>
CC(CCC1(O)OC2C(O)C3C4CCC5CC(OC6OC(CO)C(O)C(O)C6OC6OC(CO)C(O)C(O)C6O)CCC5(C)C4CCC3(C)C2C1C)COC1OC(CO)C(O)C(O)C1O (centres unmarked) [Timosaponin E1, timosaponin E1]

>  <Cmax>
18.9 ng/mL

$$$$

###

# Assay Name: Pharmacokinetic study of four steroidal saponins in rat plasma after oral administration of A. asphodeloides fractions (UPLC-MS/MS)
# Type: in vivo, Sprague-Dawley rats
# Setup Conditions: male, Sprague-Dawley, rat, plasma, po, 400 mg/kg, rat plasma, single oral dose, Group ASE-SF-MF, n = 6, mean ± S.D.; read-out: AUC0–t

>  <Compound>
C[C@H]1CC[C@@]2(OC1)O[C@H]1C[C@H]3[C@@H]4CC[C@@H]5C[C@@H](O[C@@H]6O[C@H](CO)[C@H](O)[C@H](O)[C@H]6O[C@@H]6O[C@H](CO)[C@@H](O)[C@H](O)[C@H]6O)CC[C@]5(C)[C@H]4CC[C@]3(C)[C@H]1[C@@H]2C [Timosaponin AIII, timosaponin AIII]

>  <AUC(0-t) / ng·h/mL>
890

$$$$

###

# Assay Name: Pharmacokinetic study of four steroidal saponins in rat plasma after oral administration of A. asphodeloides fractions (UPLC-MS/MS)
# Type: in vivo, Sprague-Dawley rats
# Setup Conditions: male, Sprague-Dawley, rat, in vivo, po, 400 mg/kg
# Protocol: The dried A. asphodeloides were chopped into slices before using. The A. asphodeloides was immersed in water (1:10, w/v) and extracted twice by refluxing for 2 h. […] The contents of four steroidal saponins in ASE dry powder were measured quantitatively by the external standard method using the same chromatography conditions as described above. […]
# half-life annotations

>  <Compound>
CC(CCC1(O)OC2C(O)C3C4CCC5CC(OC6OC(CO)C(O)C(O)C6OC6OC(CO)C(O)C(O)C6O)CCC5(C)C4CCC3(C)C2C1C)COC1OC(CO)C(O)C(O)C1O (centres unmarked) [Timosaponin E1, timosaponin E1]

>  <Units Of Measure>
h

>  <half-life>
8.8

$$$$
>  <Compound>
CC1=C(CCC(C)COC2OC(CO)C(O)C(O)C2O)OC2CC3C4CCC5CC(OC6OC(CO)C(O)C(O)C6OC6OC(CO)C(O)C(O)C6O)CCC5(C)C4CCC3(C)C12 (centres unmarked)

>  <Units Of Measure>
h

>  <half-life>
7.63

$$$$

###

Reported Cmax is given for each of the following compounds.
# Assay Name: Pharmacokinetic study of four steroidal saponins in rat plasma after oral administration of A. asphodeloides fractions (UPLC-MS/MS)
# Type: in vivo, Sprague-Dawley rats
# Setup Conditions: male, Sprague-Dawley, rat, plasma, po, 400 mg/kg, rat plasma, single oral dose, Group ASE-SF (ASE 400 mg/kg plus small molecule fraction), n = 6, mean ± S.D.; read-out: Cmax

>  <Smiles Repr>
C[C@H]1CC[C@@]2(OC1)O[C@H]1C[C@H]3[C@@H]4CC[C@@H]5C[C@@H](O[C@@H]6O[C@H](CO)[C@H](O)[C@H](O)[C@H]6O[C@@H]6O[C@H](CO)[C@@H](O)[C@H](O)[C@H]6O)CC[C@]5(C)[C@H]4CC[C@]3(C)[C@H]1[C@@H]2C

>  <Cmax (ng/mL)>
69.8

$$$$
>  <Smiles Repr>
C[C@@H](CC[C@@]1(O)O[C@H]2C[C@H]3[C@@H]4CC[C@@H]5C[C@@H](O[C@@H]6O[C@H](CO)[C@H](O)[C@H](O)[C@H]6O[C@@H]6O[C@H](CO)[C@@H](O)[C@H](O)[C@H]6O)CC[C@]5(C)[C@H]4CC[C@]3(C)[C@H]2[C@@H]1C)CO[C@@H]1O[C@H](CO)[C@@H](O)[C@H](O)[C@H]1O

>  <Cmax (ng/mL)>
415

$$$$

###

# Assay Name: Pharmacokinetic study of four steroidal saponins in rat plasma after oral administration of A. asphodeloides fractions (UPLC-MS/MS)
# Assay type: in vivo, Sprague-Dawley rats
# Setup Conditions: male, Sprague-Dawley, 400 mg/kg; rat plasma, single oral dose, Group ASE-SF-MF, n = 6, mean ± S.D.; read-out: Tmax

>  <Smiles Repr>
C[C@@H](CC[C@@]1(O)O[C@H]2C[C@H]3[C@@H]4CC[C@@H]5C[C@@H](O[C@@H]6O[C@H](CO)[C@H](O)[C@H](O)[C@H]6O[C@@H]6O[C@H](CO)[C@@H](O)[C@H](O)[C@H]6O)CC[C@]5(C)[C@H]4CC[C@]3(C)[C@H]2[C@@H]1C)CO[C@@H]1O[C@H](CO)[C@@H](O)[C@H](O)[C@H]1O

>  <Tmax (h)>
3.17

$$$$

###

# Assay Name: Pharmacokinetic study of four steroidal saponins in rat plasma after oral administration of A. asphodeloides fractions (UPLC-MS/MS)
# Type: in vivo, Sprague-Dawley rats
# Setup Conditions: male, Sprague-Dawley, rat, in vivo, po, 400 mg/kg, T1/2

>  <Compound>
CC(CCC1(O)OC2C(O)C3C4CCC5CC(OC6OC(CO)C(O)C(O)C6OC6OC(CO)C(O)C(O)C6O)CCC5(C)C4CCC3(C)C2C1C)COC1OC(CO)C(O)C(O)C1O (centres unmarked) [Timosaponin E1, timosaponin E1]

>  <half-life [h]>
2.95

$$$$
>  <Compound>
CC1=C(CCC(C)COC2OC(CO)C(O)C(O)C2O)OC2CC3C4CCC5CC(OC6OC(CO)C(O)C(O)C6OC6OC(CO)C(O)C(O)C6O)CCC5(C)C4CCC3(C)C12 (centres unmarked) [Anemarsaponin BIII, anemarsaponin BIII]

>  <half-life [h]>
2.75

$$$$
